Cited source for all entries: patent US20220204601A1

Exercise: state measured Absorbance at 450nm at 0.5ug/well for each of the binders provided.
# target.entity: T1, K280-ac protein fragment (human)
# T1 construct: also called mAC
# T1 peptide: VQIINK(Ac)KLDLSN
# method: ELISA on K280-ac coated at 250 ng/well, HRP anti-human IgG
Ends that are not written are not given here.
Output: the number by itself.

For this binder ( v11 (antibody, V domains shown, also called Y01h01v11; ADEL-Y01h v11 antibody) VH: EVQLVESGGGLVQPGRSLRLSCTVSGDSITSGYWNWFRQAPGKGLEYVGYIRYSGRTYYNPSLKSRFTISRDTSKNIAYLQMNSLKTEDTAVYYCASVYFTYWGQGTLVTVSS VL: DVVMTQSPDSLAVSLGERATINCKSSQSLLDSDGKTYLNWYQQKPGQSPKRLISLVSKLDSGVPDRFSGSGSGTDFTLTISSLQAEDVAVYYCWQGSHFPYTFGQGTKLEIK ), measured Absorbance at 450nm at 0.5ug/well is 0.0395

For this binder ( ADEL-Y01h v08 antibody (antibody, V domains shown, Humanized antibody; It was detected with anti-human IgG; also called Y01h01v08) VH: EVTLKESGPTLVKPTQTLTLTCTVSGDSITSGYWNWIRQPPGKALEYLAYIRYSGRTYYNPSLKSRLTITRDTSKNQVVLTMTNMDPVDTATYYCASVYFTYWGQGTLVTVSS VL: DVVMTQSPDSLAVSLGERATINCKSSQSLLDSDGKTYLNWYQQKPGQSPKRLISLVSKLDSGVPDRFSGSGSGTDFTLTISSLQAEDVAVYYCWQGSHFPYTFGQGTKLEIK ), measured Absorbance at 450nm at 0.5ug/well is 0.0965

For this binder ( ADEL-Y01h v02 antibody (antibody, V domains shown, Humanized antibody; It was detected with anti-human IgG; also called Y01h01v02) VH: EVQLQESGPGLVKPSQTLSLTCTVSGDSITSGYWNWIRQPPGKGLEYIGYIRYSGRTYYNPSLKSRVTISRDTSKNQFSLKLSSVTAADTAVYYCASVYFTYWGQGTLVTVSS VL: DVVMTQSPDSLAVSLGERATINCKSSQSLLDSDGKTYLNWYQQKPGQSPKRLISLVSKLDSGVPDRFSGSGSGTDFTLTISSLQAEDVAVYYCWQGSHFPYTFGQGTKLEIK ), measured Absorbance at 450nm at 0.5ug/well is 1.61

For this binder ( v12 (antibody, V domains shown, also called Y01h01v12; ADEL-Y01h v12 antibody) VH: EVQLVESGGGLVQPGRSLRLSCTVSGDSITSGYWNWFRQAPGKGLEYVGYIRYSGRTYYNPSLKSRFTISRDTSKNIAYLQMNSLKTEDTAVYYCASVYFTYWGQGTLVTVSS VL: EVVLTQSPGTLSLSPGERATLSCKSSQSLLDSDGKTYLNWYQQKPGQSPKRLISLVSKLDSGIPDRFSGSGSGTDFTLTISRLEPEDFAVYYCWQGSHFPYTFGQGTKLEIK ), measured Absorbance at 450nm at 0.5ug/well is 1.29

For this binder ( ADEL-Y01h v03 antibody (antibody, V domains shown, Humanized antibody; It was detected with anti-human IgG; also called Y01h01v03) VH: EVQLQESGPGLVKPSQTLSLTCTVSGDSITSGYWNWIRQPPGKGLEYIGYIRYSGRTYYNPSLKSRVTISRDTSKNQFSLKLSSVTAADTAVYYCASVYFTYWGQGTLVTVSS VL: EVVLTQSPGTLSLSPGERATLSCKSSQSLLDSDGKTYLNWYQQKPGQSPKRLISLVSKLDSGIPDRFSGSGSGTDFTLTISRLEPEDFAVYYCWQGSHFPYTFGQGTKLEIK ), measured Absorbance at 450nm at 0.5ug/well is 1.51
